- target of assay: UniProt P11509
- Sequence (P11509 1-494): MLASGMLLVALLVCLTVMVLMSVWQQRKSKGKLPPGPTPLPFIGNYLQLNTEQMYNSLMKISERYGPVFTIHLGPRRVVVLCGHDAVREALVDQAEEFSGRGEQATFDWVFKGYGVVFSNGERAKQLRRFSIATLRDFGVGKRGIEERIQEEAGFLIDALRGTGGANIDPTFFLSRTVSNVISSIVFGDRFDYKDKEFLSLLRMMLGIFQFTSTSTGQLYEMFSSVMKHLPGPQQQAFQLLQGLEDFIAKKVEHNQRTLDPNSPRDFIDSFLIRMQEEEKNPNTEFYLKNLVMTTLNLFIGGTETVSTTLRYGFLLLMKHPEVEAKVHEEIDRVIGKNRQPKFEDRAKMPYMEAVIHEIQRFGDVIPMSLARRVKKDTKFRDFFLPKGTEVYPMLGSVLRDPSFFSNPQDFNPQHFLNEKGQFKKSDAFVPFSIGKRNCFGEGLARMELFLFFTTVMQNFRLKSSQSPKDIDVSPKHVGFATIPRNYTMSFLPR
measure: IC50

Q) Write down IC50 measured for item C[C@@H](N[C@H]1CCN(c2ccc(CC(=O)O)cc2)C1)c1cccc2ccccc12
A) > 50 µM
